- Test system: OVCAR-4 ovarian
- method: NCI-60 one-dose screen, 48 h (100 = growth as untreated, 0 = no growth, -100 = all killed)
- appliedConditions: 10 µM unless noted
The panel holds about 83,000 compounds, 20% with a hit somewhere; the sample as a whole holds those more often. Active and inactive are the calls of the source. Rule for the calls: active = growth percent below 10; inactive = the rest.
Parameter: growth. Scope: all listed entries.

compound	testResult
O=C(CCSc1nnc2n(Cc3ccccc3)c(=O)c3c4c(sc3n12)CCCC4)N1CCN(c2ccccc2)CC1	115% (inactive)
Cc1nc2sc(C(=O)Nc3cccc(Br)c3C)c(N)c2cc1C(O)c1ccccc1 (stereo not given)	47.1% (inactive)
O=C1c2ccccc2C(=O)c2c1c(C(=O)NCc1ccccc1)c1ccccn21	105% (inactive)
N#Cc1ccc(O)c(C2=NCC(Cc3ccccc3)O2)c1 (stereo not given)	22.3% (inactive)

Kindly review the next compound as well.
The measured growth that COc1cccc(NCc2nnc(Nc3ccc(Cl)cc3)c3ccccc23)c1 showed for OVCAR-4 ovarian is 17.2% (inactive)

* * *

- System: SNB-75 CNS
- method: NCI-60 one-dose screen, 48 h (100 = growth as untreated, 0 = no growth, -100 = all killed)
- appliedConditions: 10 µM unless noted
The panel holds about 83,000 compounds, 20% with a hit somewhere; the sample as a whole holds those more often.
Parameter: growth. Scope: all listed entries.
Answer format: numeric, % implied, no suffix.

molecule	growth [%]
CNC(=O)c1ccccc1Nc1nc(Nc2cc(OC)c(OC)c(OC)c2)ncc1Br	-55
O=C(NNc1cnccn1)c1nc2cc(F)ccc2n2cccc12	41.1
CCN(CC)c1ccc(CNc2cc(C)nc3ccccc23)cc1	75.2

Briefly, growth measured for CN1C(=O)/C(=C/c2ccc(C(=O)Nc3ncc(Cc4cccc(Cl)c4)s3)cc2)SC1=S : 73.6

Briefly, growth measured for CC(C)CCN(CCC(C)C)CC(O)c1cc2c(c3ccccc13)CCCC2 (stereo unspecified) : 91.6

Briefly, growth measured for O=C(CN1CCN(c2cc3c(cc2F)c(=O)c(C(=O)O)cn3C2CC2)CC1)N/N=C/c1ccco1 : 87.9

* * *

Parameter: growth. Scope: all listed entries.
- Test system: HT29 colon
- method: NCI-60 one-dose screen, 48 h (100 = growth as untreated, 0 = no growth, -100 = all killed)
- appliedConditions: 10 µM unless noted
About 83,000 compounds went through this panel and 20% of them were active in at least one assay; those are over-represented in the sample as a whole.
Answer format: numeric, % implied, no suffix.

The measured growth that CNC1=CC(=O)c2c(C(=O)OC)c(C)[n+]([O-])c(C)c2C1=O showed for HT29 colon is 16.5

The measured growth that O=C(Nc1ccc(Br)cc1)C1=NCCCCN1 showed for HT29 colon is 86

* * *

- Test system: SW-620 colon
- method: NCI-60 one-dose screen, 48 h (100 = growth as untreated, 0 = no growth, -100 = all killed)
- appliedConditions: 10 µM unless noted
Compounds without any hit were thinned out: in the full panel of roughly 83,000, 20% have a hit.
Parameter: growth. Scope: all listed entries.
Answer format: numeric, % implied, no suffix.

molecule	testedTarget	growth (%)
CC1=CCC(OC(=O)C(C)(C)CC(O)(C(C)O)C(O)C2(C)C=CC(Cc3ccc(C(C)C)cc3)(C(C)C)CC2)(C(C)C)CC1 (configuration not stated)	SW-620 colon	92.6
Cc1ccc(-c2csc(N(C(=O)N3CCN(c4cc5c(cc4F)c(=O)c(C(=O)O)cn5C4CC4)CC3)c3ccccc3)n2)cc1	SW-620 colon	19.1
CC1(C)CC[C@]2(C(=O)N[C@H](CO)Cc3ccccc3)CC[C@]3(C)C(=CC[C@@H]4[C@@]5(C)CCCNC(C)(C)[C@@H]5CC[C@]43C)[C@@H]2C1	SW-620 colon	79.8
O=C(O)c1ccc(-c2ccc(/C=N/Nc3nc(Nc4ccccc4)nc(N4CCCCC4)n3)o2)cc1	SW-620 colon	86.6
CCN1CCN(CCNc2nccc(-c3c(-c4ccc(F)c(OC)c4)nc4sccn34)n2)S1(=O)=O	SW-620 colon	87.4

Briefly, growth measured for CCOC(=O)c1ccccc1-c1c2ccc(=[N+](C)C)cc-2oc2cc(N(C)C)ccc12 : 15

Briefly, growth measured for C/C=C(\C)C(=O)N[C@H]1C(O)C[C@]2(C)C3CC[C@@]4(C)C(CC[C@@H]4C(C)N(C)C)C3CCC2C1O (some centres not stated) : 12.9
